# STUDY TARGET: D(4) dopamine receptor (Homo sapiens)
# COND: Compound concentration 10 µM
# Description: PDSP Primary Binding target: DRD4 - Compounds are tested at 10 uM concentration, plate are incubated at room temperature in the dark for 90 minutes. Reaction are stopped by vacuum filtration onto 0.3% polyethyleneimine soaked filter mats using Filtermate harvester. Scintilation cocktail is then melted onto microwave-dried filters on a hot plate and the radio activity is counted in Microbia counter.
Kind request: treat 30% as inclusive, so inhibition at 30% or higher is label 1, anything lower is label 0.

Example results:
Assess whether reported inhibition for `NC(=O)[C@@H]1CCCN1C(=O)[C@H](Cc1c[nH]cn1)NC(=O)[C@@H]1CCC(=O)N1` sits at 30% or higher.
label 0

Assess whether reported inhibition for `CCN(CC)CCCCC1CCN(CC(=O)N2c3ccccc3C(=O)Nc3cccnc32)CC1` sits at 30% or higher.
label 0

Assess whether reported inhibition for `O=C(Cc1ccccc1)Nc1nc2ccc(Cl)cc2c2nc(-c3ccco3)nn12` sits at 30% or higher.
label 1

Assess whether reported inhibition for `O=S1(=O)c2cccc3cccc(c23)N1CCCN1CCN(c2ccc(F)cc2)CC1` sits at 30% or higher.
label 1

Assess whether reported inhibition for `COC1CCN(c2cccc(-c3cc(NC(C)=O)nc(-n4nc(C)cc4C)n3)n2)CC1` sits at 30% or higher.
label 0

---
Assess whether reported inhibition for `N#Cc1ccc2[nH]cc(CCCCN3CCN(c4ccc5oc(C(N)=O)cc5c4)CC3)c2c1` sits at 30% or higher.
label 1

Assess whether reported inhibition for `Cc1nc2sccn2c(=O)c1CCN1CCC(=C(c2ccc(F)cc2)c2ccc(F)cc2)CC1` sits at 30% or higher.
label 1

Assess whether reported inhibition for `N#Cc1c(N)nc(SCC(N)=O)c(C#N)c1-c1ccc(OCC2CC2)cc1` sits at 30% or higher.
label 0

Assess whether reported inhibition for `O=c1ccn([C@@H]2O[C@H](COP(=O)(O)OP(=O)(O)OP(=O)(O)O)[C@@H](O)[C@H]2O)c(=O)[nH]1` sits at 30% or higher.
label 1

Assess whether reported inhibition for `CN1C(=O)[C@@H](NC(=O)c2cc3ccccc3[nH]2)N=C(c2ccccc2)c2ccccc21` sits at 30% or higher.
label 0

* * *

# STUDY TARGET: UniProt:P50406
# Sequence (P50406 whole entry): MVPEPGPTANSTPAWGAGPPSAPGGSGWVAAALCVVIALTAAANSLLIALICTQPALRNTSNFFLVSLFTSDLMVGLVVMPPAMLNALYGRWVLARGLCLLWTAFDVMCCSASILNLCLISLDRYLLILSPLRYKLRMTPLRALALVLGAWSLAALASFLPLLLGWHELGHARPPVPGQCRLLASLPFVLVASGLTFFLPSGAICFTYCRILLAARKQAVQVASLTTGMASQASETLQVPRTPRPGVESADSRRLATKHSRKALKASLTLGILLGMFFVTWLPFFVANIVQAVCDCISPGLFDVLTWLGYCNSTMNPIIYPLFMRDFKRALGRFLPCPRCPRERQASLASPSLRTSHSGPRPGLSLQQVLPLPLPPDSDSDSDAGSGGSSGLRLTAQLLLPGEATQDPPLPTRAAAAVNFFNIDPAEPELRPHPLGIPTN
# COND: Compound concentration 10 µM
# Description: PDSP Primary Binding target: HTR6 - Compounds are tested at 10 uM concentration, plate are incubated at room temperature in the dark for 90 minutes. Reaction are stopped by vacuum filtration onto 0.3% polyethyleneimine soaked filter mats using Filtermate harvester. Scintilation cocktail is then melted onto microwave-dried filters on a hot plate and the radio activity is counted in Microbia counter.
Kind request: treat 40% as inclusive, so inhibition at 40% or higher is T, anything lower is F.

Assess whether reported inhibition for `C[C@H](NC[C@H](O)CP(=O)(O)CC1CCCCC1)c1ccc(Cl)c(Cl)c1` sits at 40% or higher.
F

Assess whether reported inhibition for `Cc1ccccc1N1CCN(S(=O)(=O)C[C@]23CC[C@H](C[C@@H]2NC(=O)[C@@H](N)CCS(C)(=O)=O)C3(C)C)CC1` sits at 40% or higher.
F

Assess whether reported inhibition for `Cc1csc2c(N[C@@H](C)CN3CCN(S(=O)(=O)c4ccc(Cl)c(Cl)c4)CC3)ncnc12` sits at 40% or higher.
F

Assess whether reported inhibition for `CN(C)C(=O)N[C@H]1CC[C@H](CCN2CCN(c3cccc(Cl)c3Cl)CC2)CC1` sits at 40% or higher.
T

Assess whether reported inhibition for `C[C@@H](NCCCc1cccc(C(F)(F)F)c1)c1cccc2ccccc12` sits at 40% or higher.
T

---
Assess whether reported inhibition for `Nc1nc2c(c(N3CCNCC3)n1)CCC1=C2[C@@H]2CCCC[C@@H]2O1` sits at 40% or higher.
F

Assess whether reported inhibition for Cc1c(OCc2cccc(-c3ccc(C(=O)O)cc3)c2)cc2c(c1C)C(=O)C(C1CCCC1)C2 (stereo not given) sits at 40% or higher.
F

Assess whether reported inhibition for `CO[C@@H]1COCC[C@@H]1N[C@@H]1CC[C@@](C(=O)N2CCc3ncc(C(F)(F)F)cc3C2)(C(C)C)C1` sits at 40% or higher.
F

Assess whether reported inhibition for `CCc1ccc(OCc2ccccc2C(=O)Nc2ccc3nc(C)cc(N)c3c2)cc1` sits at 40% or higher.
T

Assess whether reported inhibition for `CN1C(=O)[C@@H](NC(=O)c2cc3ccccc3[nH]2)N=C(c2ccccc2)c2ccccc21` sits at 40% or higher.
F

Assess whether reported inhibition for `S=C(NCCCc1c[nH]cn1)NCCCN(Cc1ccc(Cl)c(Cl)c1)c1ccc(Br)cn1` sits at 40% or higher.
T

Assess whether reported inhibition for CC(C)NCC(O)c1ccc(N)c(C#N)c1 (stereo not given) sits at 40% or higher.
F

Assess whether reported inhibition for `N#Cc1c(N)nc(SCC(N)=O)c(C#N)c1-c1ccc(OCC2CC2)cc1` sits at 40% or higher.
F

Assess whether reported inhibition for `O=C1N/C(=N/c2ccccc2F)S/C1=C\c1ccc(C(=O)O)cc1` sits at 40% or higher.
F

Assess whether reported inhibition for `CC(C)[C@H](CO)Nc1nc(Nc2cccc(Cl)c2)c2ncn(C(C)C)c2n1` sits at 40% or higher.
T

Assess whether reported inhibition for `Cc1cc(NC(=O)NCCN2CCC(O)(Cc3ccccc3)CC2)c2ccccc2n1` sits at 40% or higher.
F

Assess whether reported inhibition for `CCCCC#Cc1nc(NC)c2ncn([C@@H]3O[C@H](CO)[C@@H](O)[C@H]3O)c2n1` sits at 40% or higher.
F

Assess whether reported inhibition for `CCCNS(=O)(=O)Nc1ncnc(OCCOc2ncc(Br)cn2)c1-c1ccc(Br)cc1` sits at 40% or higher.
F

Assess whether reported inhibition for `O=c1ccc2ccc(OCCCCN3CCN(c4cccc5sccc45)CC3)cc2[nH]1` sits at 40% or higher.
T
